The origin of these recorded values is PubChem BioAssay (EPA / NIEHS).

tested on: rat Adrenergic, Alpha 1B Receptor (Adra1B), gene 24173; assay: NVS_GPCR_rAdra1B: NovaScreen (NVS) G Protein-Coupled Receptor Assay for rat Adrenergic, Alpha 1B Receptor (Adra1B) (AID 2283297)
Records with an inconclusive call do not appear. Activity calls are given as the source filed them. The calls were made as follows: active = hit-call score of the fitted dose curve at least 0.9, where 1 is the maximum; inconclusive = response in the unintended direction; inactive = score below 0.9.
A correct response names exactly one class from True (active), False (inactive)

# count of solved cases: 4
[
  {
    "COMPOUND": "CC(C)NCC(O)c1ccc(O)c(O)c1 (stereo not given)",
    "CATEGORY LABEL": "False"
  },
  {
    "COMPOUND": "Cn1cnc2c1c(=O)[nH]c(=O)n2C",
    "CATEGORY LABEL": "False"
  },
  {
    "COMPOUND": "CN(C)CCCN(C)CCCN(C)C",
    "CATEGORY LABEL": "False"
  },
  {
    "COMPOUND": "CSc1ccc(Oc2ccc(S(N)(=O)=O)cc2CN(C)C)cc1C",
    "CATEGORY LABEL": "True"
  }
]

**Q:** Look up the recorded call for COc1ccc(OC(F)(F)F)cc1CN[C@H]1CCCN[C@H]1c1ccccc1 in this test.
**A:** True
